# Test system: HEK-293T
# test.method.notes: Incucyte cell viability with HEK293T; note: unitless GR value; below 1 slowed growth and below 0 cell loss
# Type: toxicity, cell-based
# reported.conditions: human, 6 h, 10 µM, compound concentration 10 uM, replicate number 2, timepoint 6 hours
Where a SMILES comes first, the peptide text is derived from it. Bridges are numbered along the chain shown (N, C = ends). [ ]: non-standard residue; d: D form. Orn = NCCC[C@H](N)C(=O)O; Mpa = O=C(O)CCS
assay.endpoint: Growth Rate

molecule	result
CCOc1ccc(C[C@H]2NC(=O)CCSSC[C@@H](C(=O)N3CCC[C@H]3C(=O)N[C@@H](CCCN)C(=O)NCC(N)=O)NC(=O)[C@H](CC(N)=O)NC(=O)[C@H]([C@@H](C)O)NC(=O)[C@H]([C@@H](C)CC)NC2=O)cc1 [ATOSIBAN] ([Mpa][dY](Et)ITNCP[Orn]G-NH2; disulfide 1-6)	0.92
CN[C@@H](C)C(=O)N[C@H]1CCCC[C@H]2CC[C@@H](C(=O)N[C@@H](c3ccccc3)c3cn(CCCCc4ccc(CCCCn5cc([C@@H](NC(=O)[C@@H]6CC[C@@H]7CCCC[C@H](NC(=O)[C@H](C)NC)C(=O)N76)c6ccccc6)nn5)cc4)nn3)N2C1=O	0.74
O=C(N[C@@H]1CC[C@@H](c2cccc(F)c2F)CN(CC(F)(F)F)C1=O)N1CCC(n2c(=O)[nH]c3ncccc32)CC1	0.77
NC(=O)c1cc2c(-c3ccc(C(=O)NCc4ccnc(Cl)c4)s3)cccc2s1	0.1
CS(=O)(=O)c1ccc(C(=O)Nc2ccc(Cl)c(-c3ccccn3)c2)c(Cl)c1	0.75
